System: HMEC
Test: Anti-proliferation assay (PrestoBlue), normal cell control
Type: cell-based, human
Conditions: Homo sapiens; HMEC normal cells, 48 h treatment
pIC50: −log10 of the molar value.
measured.parameter: pIC50

smi	measured.parameter	number
CCCCCCCCCCCCC1=CC(=O)C=C(OC)C1=O	pIC50	4.32
